Test system: Ipomoea hederacea (IPOHE)
Assay: Pre-emergence herbicide test, glasshouse, percentage damage
Type: in vivo
Settings: rate 500 g/ha, evaluated after 13 days
Give Pre-emergence Test IPOHE percentage damage (five point scale) for every item shown.

Input: API: value(readout= Pre-emergence Test IPOHE percentage damage (five point scale), system= Ipomoea hederacea (IPOHE), query= N#Cc1ccc(Oc2cccc(F)c2-c2cc(C(F)F)no2)nc1 [Compound A12] )
Output: 5 (5=81-100%)

Input: API: value(readout= Pre-emergence Test IPOHE percentage damage (five point scale), system= Ipomoea hederacea (IPOHE), query= Fc1cccc(Oc2cccc(F)c2-c2cc(C(F)F)no2)n1 [Compound A7] )
Output: 1 (1=0-20%)

Input: API: value(readout= Pre-emergence Test IPOHE percentage damage (five point scale), system= Ipomoea hederacea (IPOHE), query= Fc1cnc(Oc2cccc(F)c2-c2cc(C(F)F)no2)c(F)c1 [Compound A10] )
Output: 5 (5=81-100%)

Input: API: value(readout= Pre-emergence Test IPOHE percentage damage (five point scale), system= Ipomoea hederacea (IPOHE), query= Fc1cc(Cl)cnc1Oc1cccc(F)c1-c1ncc(C(F)(F)F)o1 [Compound A3] )
Output: 1 (1=0-20%)

Input: API: value(readout= Pre-emergence Test IPOHE percentage damage (five point scale), system= Ipomoea hederacea (IPOHE), query= Fc1cccc(Oc2cc(C(F)(F)F)ccn2)c1-c1cc(C(F)F)no1 [Compound A8] )
Output: 1 (1=0-20%)

Input: API: value(readout= Pre-emergence Test IPOHE percentage damage (five point scale), system= Ipomoea hederacea (IPOHE), query= Fc1cccc(Oc2ccc(Cl)cn2)c1-c1cc(C(F)F)no1 [Compound A9] )
Output: 3 (3=41-60%)
